- TARGET_OR_TEST_SYSTEM: Tyrosine-protein kinase SYK (Homo sapiens) (UniProt P43405)
pIC50: −log10 of the molar value.
Parameter pIC50: see the listing below.
ENDPOINT: pIC50

1. CCCCCCNc1nc(N2CCC(NC(=O)c3ccc(C(=O)O)cn3)C2)nc2c1COC2 (configuration not stated) ... 5.01
2. COc1ccc(Nc2nc(N3CCC(NC(=O)c4ccc(C(=O)O)cc4)C3)nc3c2CCC3)cc1OC (configuration not stated) ... 4.60
3. COc1ccc(Nc2nc(N3CCC(NC(=O)c4ccc(C(=O)O)cn4)C3)nc3c2COC3)cc1 (configuration not stated) ... 4.49
4. COc1cc(Nc2nc(N3CCC(NC(=O)c4ccc(C(=O)O)cn4)C3)nc3c2COC3)cc(OC)c1OC (configuration not stated) ... 4.85
5. Cc1ccc(Nc2nc(N3CCC(NC(=O)c4ccc(C(=O)O)cn4)C3)nc3c2COC3)cc1C (configuration not stated) ... 4.81
6. O=C(O)c1ccc(C(=O)NC2CCN(c3nc4c(c(NC5CCCCC5)n3)COC4)C2)nc1 (configuration not stated) ... 4.87
